# Tested on: zymostenol accumulation (EBP) in EpiSC-derived OPCs
# test details: GC/MS-based sterol profiling, zymostenol accumulation in EpiSC-derived OPCs
# Type: cell-based, mouse
# applied conditions: Mus musculus, 24 h, EpiSC-derived OPCs, 24 hr, 8 doses from 0.15 nM to 333 nM; read-out: Mouse Zymostenol GCMS EC50
value type: EC50 (nM)

Consider the worked cases shown below.
compound	EC50 / nM
CC(C)n1nc(-c2cncc(C(F)(F)F)c2)cc1[C@H]1CC[C@@H](N2CCOCC2)CC1	20.9
CC(C)n1nc(-c2cccc(C(F)(F)F)c2)nc1[C@H]1[C@@H]2C[C@@H](N3CCCOCC3)C[C@@H]21	40.2
CC(C)n1nc(-c2cccc(OC(F)F)c2)cc1[C@H]1[C@@H]2C[C@@H](N3CCCOCC3)C[C@@H]21 (single isomer, unassigned)	13.7
COCCN1CCN([C@@H]2CC[C@@H](c3nc(-c4ccc(C(F)(F)F)nc4)nn3C(C)C)C2)CC1	280

a = CC[C@H]1CN([C@@H]2CC[C@@H](c3nc(-c4cnc(C(F)(F)F)nc4)nn3C(C)C)C2)CCO1
b = CC(C)n1nc([C@H]2CC[C@H](C(F)(F)F)CC2)nc1[C@H]1[C@@H]2C[C@@H](N3CCOC[C@H]3C)C[C@@H]21 (single isomer, unassigned)
When a and b are compared, which has the higher number for EC50? Answer with the label corresponding to your selection. a
(a: 305 nM, b: 4.55 nM)

====

# System: zymostenol accumulation (EBP) in EpiSC-derived OPCs
# test details: GC/MS-based sterol profiling, zymostenol accumulation in EpiSC-derived OPCs
# Type: cell-based, mouse
# applied conditions: Mus musculus, 24 h, EpiSC-derived OPCs, 24 hr, 8 doses from 0.15 nM to 333 nM; read-out: Mouse Zymostenol GCMS EC50
value type: EC50 (µM)

Consider the worked cases shown below.
compound	reported
CC(C)n1nc(-c2cnc(C(F)(F)F)nc2)nc1[C@@H]1CC[C@H](N2CCO[C@H](C)C2)C1	0.0134
CC(C)n1nc(-c2cccc(C(F)(F)F)c2)cc1[C@H]1[C@@H]2C[C@H](N3CCOCC3)C[C@@H]21	0.00298

A = CC(C)n1nc(-c2cncc(C(F)(F)F)c2)cc1[C@H]1CC[C@H](N2CCOCC2)C1 (single isomer, unassigned)
B = CC(C)n1nc(-c2ccc(C(F)(F)F)nc2)cc1[C@H]1CC[C@H](N2CCN(CCO)CC2)C1 (single isomer, unassigned)
C = CC[C@@H]1CN([C@@H]2CC[C@H](c3nc(-c4cnc(C(F)(F)F)nc4)nn3C(C)C)C2)CCO1 (single isomer, unassigned)
D = CC(C)n1nc(-c2ccc(C(F)(F)F)nc2)nc1[C@H]1[C@@H]2C[C@H](N3CCCOCC3)C[C@@H]21
Your job: order these 4 records by EC50, ascending. Labels, ranked as asked. D, A, C, B
(D: 0.00598 µM, A: 0.0251 µM, C: 0.044 µM, B: 0.627 µM)

====

# test target: human emopamil binding protein and human 7-dehydrocholesterol reductase (hEBP-DHCR7) (Homo sapiens (Human))
# Sequence (Q15125 whole entry): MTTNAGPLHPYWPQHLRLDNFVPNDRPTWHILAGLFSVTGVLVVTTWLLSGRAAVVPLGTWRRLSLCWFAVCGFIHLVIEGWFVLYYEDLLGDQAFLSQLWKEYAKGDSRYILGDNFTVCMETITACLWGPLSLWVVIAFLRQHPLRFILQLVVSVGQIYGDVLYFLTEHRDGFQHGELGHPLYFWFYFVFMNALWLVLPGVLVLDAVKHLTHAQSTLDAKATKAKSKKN
value type: Ki (nM)

Consider the worked cases shown below.
compound	endpoint unit	reported
CC(C)n1nc(-c2cccc(C(F)(F)F)n2)cc1[C@H]1[C@@H]2C[C@@H](N3CCN(C4CCC4)CC3)C[C@@H]21	nM	27.8
CC(C)n1nc(-c2cncc(C(F)(F)F)c2)cc1[C@H]1CC[C@H](N2CCOCC2)C1 (single isomer, unassigned)	nM	26.2
CC(C)n1nc(-c2ccc(C(F)(F)F)nc2)nc1[C@H]1CC[C@@H](N2CCO[C@H](CF)C2)C1 (single isomer, unassigned)	nM	30.2

I = CC(C)n1nc(-c2cnc(C(F)(F)F)nc2)cc1[C@H]1CC[C@@H](N2CCO[C@@H](CF)C2)C1 (single isomer, unassigned)
II = CC(C)n1nc(-c2cccc(C(F)(F)F)c2)cc1[C@H]1[C@@H]2C[C@H](N3CCCOCC3)C[C@@H]21
Of I and II , whose reported Ki is numerically smaller? Answer with the label corresponding to your selection. II
(II: 8.64 nM, I: 106 nM)

====

pKi: −log10 of the molar value.
The compounds below have reported pKi for UniProtKB Q15125.
value type: pKi

Consider the worked cases shown below.
compound	pKi
CC(C)n1nc(-c2cccc(C(F)(F)F)c2)nc1[C@H]1[C@@H]2C[C@H](N3CCOC[C@@H]3C)C[C@@H]21	7.30
CC(C)n1nc(-c2ccnc(C(F)(F)F)n2)cc1[C@H]1[C@@H]2C[C@@H](N3CCOC[C@@H]3C)C[C@@H]21	7.96

1 = CC(C)n1nc(-c2ccc(C(F)(F)F)nc2)nc1[C@@H]1CC[C@H](N2CCCOCC2)C1
2 = CC(C)n1nc(-c2cccc(C(F)(F)F)c2)nc1[C@@H]1CC[C@@H](N2CCOCC2)C1 (single isomer, unassigned)
When 1 and 2 are compared, which has the higher number for pKi? Answer with the label corresponding to your selection. 1

A = FC(F)(F)c1cccc(-c2nc([C@H]3CC[C@@H](N4CCCOCC4)C3)n(C3CC3)n2)n1 (single isomer, unassigned)
B = CC(C)n1nc(-c2cccc(C(F)(F)F)n2)nc1[C@H]1CC[C@H](N2CCOC[C@H]2C)CC1 (single isomer, unassigned)
Of A and B , whose reported pKi is numerically smaller? Answer with the label corresponding to your selection. B

====

# System: zymostenol accumulation (EBP) in EpiSC-derived OPCs
# test details: GC/MS-based sterol profiling, zymostenol accumulation in EpiSC-derived OPCs
# Type: cell-based, mouse
# applied conditions: Mus musculus, 24 h, EpiSC-derived OPCs, 24 hr, 8 doses from 0.15 nM to 333 nM; read-out: Mouse Zymostenol GCMS EC50
pEC50: −log10 of the molar value.
value type: pEC50

Consider the worked cases shown below.
molecule	test target	value type	reported
CC(C)n1nc([C@H]2CC[C@@H](C(F)(F)F)CC2)nc1[C@H]1[C@@H]2C[C@@H](N3CCOC[C@H]3C)C[C@@H]21 (single isomer, unassigned)	zymostenol accumulation (EBP) in EpiSC-derived OPCs	pEC50	8.45
FC(F)(F)c1cccc(-c2nc([C@H]3CC[C@H](N4CCCOCC4)C3)n(C3CC3)n2)n1 (single isomer, unassigned)	zymostenol accumulation (EBP) in EpiSC-derived OPCs	pEC50	7.67

1 = CC(C)n1nc(-c2cnc(N)c(C(F)(F)F)c2)cc1[C@H]1[C@@H]2C[C@H](N3CCCOCC3)C[C@@H]21 [Compound C, reference compound]
2 = CC(C)n1nc(-c2cccc(C#N)c2)cc1[C@H]1[C@@H]2C[C@H](N3CCCOCC3)C[C@@H]21
3 = CC(C)n1nc(-c2ccnc(C(F)(F)F)n2)cc1[C@H]1[C@@H]2C[C@@H](N3CCOC[C@H]3C)C[C@@H]21
4 = CC[C@@H]1CN([C@@H]2CC[C@H](c3nc(-c4ccc(C(F)(F)F)nc4)nn3C(C)C)C2)CCO1
Please give the order of these molecules when sorted by pEC50, largest value leading. Labels, ranked as asked. 4, 2, 1, 3

====

# Tested on: zymostenol accumulation (EBP) in EpiSC-derived OPCs
# test details: GC/MS-based sterol profiling, zymostenol accumulation in EpiSC-derived OPCs
# Assay type: cell-based, mouse
# applied conditions: EpiSC-derived OPCs, 24 hr, 8 doses from 0.15 nM to 333 nM; read-out: Mouse Zymostenol GCMS EC50
value type: EC50 (nM)

1 = CC(C)n1nc(-c2cccc(C(F)(F)F)c2)nc1[C@H]1CC[C@H](N2CCOCC2)C1 (single isomer, unassigned) [24*]
2 = CC(C)n1nc(-c2cccc(C(F)(F)F)c2)nc1[C@H]1CC[C@H](N2CCOCC2)C1 (single isomer, unassigned) [23*]
When 1 and 2 are compared, which has the higher number for EC50? Answer with the label corresponding to your selection. 2
(2: 13.1 nM, 1: 1.65 nM)

====

# Test system: zymostenol accumulation (EBP) in EpiSC-derived OPCs
# test details: GC/MS-based sterol profiling, zymostenol accumulation in EpiSC-derived OPCs
# Format: cell-based, mouse
# applied conditions: Mus musculus, 24 h, EpiSC-derived OPCs, 24 hr, 8 doses from 0.15 nM to 333 nM; read-out: Mouse Zymostenol GCMS EC50
pEC50: −log10 of the molar value.
value type: pEC50

compound	test target	reported
CC(C)n1nc(-c2ccnc(C(F)(F)F)n2)cc1[C@H]1[C@@H]2C[C@H](N3CCOCC3)C[C@@H]21 [Compound 99]	zymostenol accumulation (EBP) in EpiSC-derived OPCs	7.21
CC(C)n1nc(-c2ccc(C(F)(F)F)nc2)nc1[C@@H]1CC[C@H](N2CCCOCC2)C1 [Compound 4]	zymostenol accumulation (EBP) in EpiSC-derived OPCs	7.91
CC(C)n1nc(-c2ccccc2F)cc1[C@H]1[C@@H]2C[C@@H](N3CCCOCC3)C[C@@H]21 [Compound 194*]	zymostenol accumulation (EBP) in EpiSC-derived OPCs	7.37

a = CC(C)n1nc(-c2cncc(C(F)(F)F)c2)nc1[C@H]1[C@@H]2C[C@@H](N3CCOC[C@@H]3C)C[C@@H]21 [Compound 121]
b = CC(C)n1nc(-c2cncc(C(F)(F)F)c2)cc1[C@H]1CC[C@@H](N2CCCOCC2)C1 (single isomer, unassigned) [64*]
c = CC(C)n1nc(-c2cc(C(F)(F)F)ccn2)nc1[C@@H]1CC[C@H](N2CCOCC2)C1 (single isomer, unassigned) [28*]
d = CC(C)n1nc(-c2cncc(Cl)c2)nc1[C@H]1CC[C@H](N2CCOC[C@@H]2C)C1 [Compound 125]
e = CC(C)n1nc([C@H]2CC[C@@H](C(F)(F)F)CC2)nc1[C@H]1[C@@H]2C[C@H](N3CCOC[C@H]3C)C[C@@H]21 (single isomer, unassigned) [Compound 166*]
Please give the order of these compounds when sorted by pEC50, largest value leading. Labels, ranked as asked. b, c, e, a, d

P = CC(C)n1nc([C@H]2CC[C@H](C(F)(F)F)CC2)nc1[C@H]1[C@@H]2C[C@H](N3CCOC[C@H]3C)C[C@@H]21 (single isomer, unassigned) [Compound 164*]
Q = CC[C@@H]1CN([C@H]2CC[C@@H](c3nc(-c4cnc(C(F)(F)F)nc4)nn3C(C)C)C2)CCO1 [Compound 152]
When P and Q are compared, which has the higher number for pEC50? Answer with the label corresponding to your selection. Q
(Q: 8.67, P: 6.84)

a = CC(C)n1nc(-c2cccc(OC(F)F)c2)nc1[C@H]1[C@@H]2C[C@@H](N3CCOC[C@H]3C)C[C@@H]21 [Compound 77]
b = CC(C)n1nc(-c2ccc(OC(F)(F)F)cc2)cc1[C@H]1[C@@H]2C[C@@H](N3CCCOCC3)C[C@@H]21 [Compound 186*]
c = CC(C)n1nc(-c2cncc(Cl)c2)nc1[C@H]1CC[C@@H](N2CCOC[C@@H]2C)C1 [Compound 126]
d = CC(C)n1nc(-c2cncc(C(F)(F)F)c2)cc1[C@@H]1CC[C@@H](N2CCOCC2)C1 (single isomer, unassigned) [59*]
Please give the order of these compounds when sorted by pEC50, largest value leading. Labels, ranked as asked. c, d, b, a
(c: 8.17, d: 7.72, b: 7.25, a: 6.72)

a = CC(C)n1nc(-c2cncc(C(F)(F)F)c2)nc1[C@H]1[C@@H]2C[C@@H](N3CCOC[C@H]3C)C[C@@H]21 [Compound 119]
b = CC(C)n1nc(-c2cncc(F)c2)cc1[C@H]1[C@@H]2C[C@@H](N3CCCOCC3)C[C@@H]21 [Compound 188*]
c = CC(C)n1nc(-c2cncc(C(F)(F)F)c2)nc1[C@H]1[C@@H]2C[C@H](N3CCO[C@H](C)C3)C[C@@H]21 [Compound 163]
Please give the order of these compounds when sorted by pEC50, largest value leading. Labels, ranked as asked. c, b, a
